The reported measurements were obtained from the Deep4Chem optical property database.

Assay: solvent given as SMILES
Conditions: in ClC(Cl)Cl
OUTCOME_MEASURE: fluorescence lifetime

MOLECULE	OUTCOME_MEASURE	RECORDED_MEASUREMENT
Cc1cc(C)cc(NC(=O)c2sc(Br)nc2C)c1	fluorescence lifetime	0.18 ns
CN(C)c1ccc(C2=Cc3cc(Cl)nc[n+]3[B-](F)(F)O2)cc1	fluorescence lifetime	2.5 ns
CC(C)(C)NC(=O)c1cc2ccc3cccc4ccc(c1C(=O)NC(C)(C)C)c2c34	fluorescence lifetime	17.2 ns
CCCCCCCCCCCCOc1cc2c3c(ccc4c5c(NC6CCCCC6)cc6c7c(ccc(c1c34)c75)C(=O)N(C1CCCCC1)C6=O)C(=O)N(C1CCCCC1)C2=O	fluorescence lifetime	0.8 ns
CC1(C)c2ccccc2N(c2ccc(S(=O)(=O)c3ccc(N4c5ccccc5C(C)(C)c5ccccc54)cc3)cc2)c2ccccc21	fluorescence lifetime	21 ns
F[B-]1(F)OC(c2cc3c4c(c2)CCCN4CCC3)=Cc2cccc[n+]21	fluorescence lifetime	3.19 ns
COc1ccc2c(-c3nc(-c4ccccc4)no3)cc(=O)oc2c1	fluorescence lifetime	4.8 ns
c1ccc2c(-c3cc(-c4nccs4)nc(-c4nccs4)c3)cccc2c1	fluorescence lifetime	2.19 ns
F[B-]1(F)OC(c2ccc(N3CCCCC3)cc2)=Cc2cccc[n+]21	fluorescence lifetime	2.68 ns
CN(C)c1ccc(C2=Cc3ccc4ccccc4[n+]3[B-](F)(F)O2)cc1	fluorescence lifetime	2.8 ns
CN(C)c1ccc(/C=C/c2cc[n+](Cc3cc(C[n+]4ccc(/C=C/c5ccc(N(C)C)cc5)cc4)cc(C[n+]4ccc(/C=C/c5ccc(N(C)C)cc5)cc4)c3)cc2)cc1	fluorescence lifetime	0.64 ns
O=C1NC(=O)c2ccc(N3CCCCC3)c3cccc1c23	fluorescence lifetime	8.86 ns
CCCCc1cc(-c2cccc(COC)c2)oc1-c1cccc(COC)c1	fluorescence lifetime	1.35 ns
CC(C)(C)N1C(=O)c2c(cc3ccc4cccc5ccc2c3c45)C1O (stereo unspecified)	fluorescence lifetime	4.93 ns
COc1ccc(C2=Cc3c4ccccc4c4ccccc4[n+]3[B-](F)(F)O2)cc1	fluorescence lifetime	1.58 ns
Cc1ccc(-n2c(-c3ccccc3O)nc(-c3ccccc3O)c2-c2ccccc2O)cc1	fluorescence lifetime	1.2 ns
CCCCc1cc(-c2cccc(COC)c2)oc1-c1cccc(-c2oc(-c3cccc(COC)c3)cc2CCCC)c1	fluorescence lifetime	1.4 ns
CCCCCCn1c2cc(/C=C(\C#N)c3cccs3)ccc2c2ccc(/C=C(\C#N)c3cccs3)cc21	fluorescence lifetime	0.56 ns
CCCCCCN1C(=O)c2cccc3cc(/N=C\c4cnc5ccccc5c4)cc(c23)C1=O	fluorescence lifetime	13.7 ns
COc1ccc(C(=O)NN2C3=C(CC4=C2CCCC4=O)C(=O)CCC3)cc1	fluorescence lifetime	6.2 ns
CCCCCCC(CCCCCC)n1c(=O)c2c3ccc4cccc5c6cccc7ccc(c2c1=O)c(c76)c3c45	fluorescence lifetime	6.7 ns
O=C1NC(=O)c2ccc(N3CCOCC3)c3cccc1c23	fluorescence lifetime	8.65 ns
CCC(=O)c1ccc2cc(N(C)C)ccc2c1	fluorescence lifetime	3.09 ns
CN(C)/C=N\c1ccc2c3c(cccc13)C(=O)c1ccccc1-2	fluorescence lifetime	7.96 ns
C(#Cc1ccc(C#Cc2ccc(C#Cc3ccccc3)cc2)cc1)c1ccccc1	fluorescence lifetime	1.7 ns
COc1ccc(N(c2ccc(OC)cc2)c2ccc(-c3ccc(-c4ccc(-c5cccs5)c5nsnc45)s3)cc2)cc1	fluorescence lifetime	6.55 ns
COc1ccc2c(-c3nc(-c4cccc(Br)c4)no3)cc(=O)oc2c1	fluorescence lifetime	6.8 ns
CCCCN1C(=O)c2cc(Oc3ccc(C(C)(C)C)cc3)c3c4c(Oc5ccc(C(C)(C)C)cc5)c(Oc5ccc(C(C)(C)C)cc5)c5c6c(cc(Oc7ccc(C(C)(C)C)cc7)c(c7c(Oc8ccc(C(C)(C)C)cc8)c(Oc8ccc(C(C)(C)C)cc8)c(c2c37)C1=O)c64)C(=O)N(CCCC)C5=O	fluorescence lifetime	6.3 ns
CN(C)c1ccc(/C=C2\CC/C(=C\c3ccc(N(C)C)cc3)C2=O)cc1	fluorescence lifetime	0.57 ns
Cc1cc(C)c(C2=C3C=CC=[N+]3[B-]3(F)Oc4cc(O)cc5c6ccc(C)cc6c6cc2n3c6c45)c(C)c1 (stereo unspecified)	fluorescence lifetime	4 ns
COc1ccc(C#Cc2ccc(C#N)cc2)cc1OC	fluorescence lifetime	0.89 ns
CCCCCCN1C(=O)c2cccc3c(-c4sc(-c5ccc6c7c(cccc57)C(=O)N(CCCCCC)C6=O)c5c4OCCO5)ccc(c23)C1=O	fluorescence lifetime	0.462 ns
N#Cc1ccc(/C=C/c2c3ccccc3cc3ccccc23)cc1	fluorescence lifetime	0.82 ns
CC(C)(C)C1Nc2ccccc2C(=O)N1Cc1ccccc1 (stereo unspecified)	fluorescence lifetime	5.86 ns
CCOC(=O)C(C(=O)OCC)C1=[N+]2C(=C(c3ccc(C)cc3)c3ccc(Cl)n3[B-]2(F)F)C=C1	fluorescence lifetime	3.67 ns
CCCCCCCCCCCCOc1cc2c3c(ccc4c5c(SCCCCCCCCCCCC)cc6c7c(ccc(c1c34)c75)C(=O)N(C1CCCCC1)C6=O)C(=O)N(C1CCCCC1)C2=O	fluorescence lifetime	7.8 ns
